Recorded measurements of growth, one per entry
System: NCI-H322M lung
Experiment: NCI-60 one-dose screen, 48 h (100 = growth as untreated, 0 = no growth, -100 = all killed)
Details: 10 µM unless noted
The panel holds about 83,000 compounds, 20% with a hit somewhere; the sample as a whole holds those more often. Calls of active or inactive are those of the source. The calls were made as follows: active = growth percent below 10; inactive = the rest.

Record Cc1ccc(/C=C(\C#N)n2nnc3cc(F)c(F)cc32)cc1 has NCI-H322M lung growth equal to 4.87% (active)

The reported growth value, NCI-H322M lung, for Fc1cc(Nc2ccc3c(OCCCN4CCOCC4)cccc3n2)ccc1Cl reads 45.3% (inactive)

* * *

Tested on: SF-268 CNS
Assay: NCI-60 one-dose screen, 48 h (100 = growth as untreated, 0 = no growth, -100 = all killed)
Details: 10 µM unless noted
The panel holds about 83,000 compounds, 20% with a hit somewhere; the sample as a whole holds those more often.
Classify: Y when growth is strictly less than 70%; N when growth is not.

Does the reported growth of O=C(Cn1nnc2ccccc21)N/N=C/c1c[nH]c2ccccc12 stay below 70%? Y

A record lists Cn1c2c(c3ccc(Cl)c(Cl)c31)C(C#N)C(C)(C)NC2=O (stereo not given) . Is its growth below 70%? N

Say whether its growth is strictly beneath 70%. Entry: Cn1c(=O)c2[nH]c(SCC(=O)Nc3ccc(C(=O)/C=C/c4ccccc4Cl)cc3)nc2n(C)c1=O N

In plain terms, does COc1ccc2c(c1)c(-c1nc(-c3c[nH]c4ncccc34)cs1)cn2CCCN1CCOCC1 come in under 70% for growth? Y

State whether 70% exceeds growth recorded for O=C1/C(=C/c2ccc(O)c(O)c2)COc2ccc(-c3ccccc3)cc21 . Y

I'd appreciate it if you could check whether CC(=O)OC(c1ccccc1)C1CCOC1=O (stereo not given) has growth smaller than 70%. N

For COc1ccc2c(c1)c(-c1nc(-c3c[nH]c4ncccc34)cs1)cn2CCO , is the recorded growth below the cut-off of 70%? Y

growth under 70%? Item: COc1cc(OC)c2sc(-c3ccc(-n4cncc4-c4cc(OC)c(OC)c(OC)c4)cc3)nc2c1 Y

Strictly below 70% in growth? OCCNCCNC(Cc1ccc(Cl)cc1)c1ccccc1 (stereo not given) N

Take the molecule CCCn1nc(C(=O)N(C)Cc2ccccc2)c2c1CCC(N1CCc3ccccc31)C2 (stereo not given) and say whether its growth is less than 70%. N

Hello, I'm reviewing records and need to know if growth of COc1cc(/C=C2\CN(S(=O)(=O)c3ccccc3)C/C(=C\c3cc(CN4CCCCC4)c(O)c(OC)c3)C2=O)cc(CN2CCCCC2)c1O is below 70%. Could you check? Y

Just wondering, is growth of O=C1/C=C/[C@@H](O)[C@@H]2C[C@@H](O)C[C@H]2/C=C/CCC[C@H](CCO)O1 below 70%? Y

Given the entry O=C(Nc1ccc(Cl)cc1)Oc1c(Cl)c(Cl)c(Cl)c(Cl)c1Cl , would its reported growth be below 70%? N

* * *

Test system: NCI-H23 lung
Assay: NCI-60 one-dose screen, 48 h (100 = growth as untreated, 0 = no growth, -100 = all killed)
Conditions: 10 µM unless noted
The panel holds about 83,000 compounds, 20% with a hit somewhere; the sample as a whole holds those more often. The source made the active and inactive calls. The calls were made as follows: active = growth percent below 10; inactive = the rest.
Let's look at some compounds and their measured growth.

CCCCC#Cc1c(I)n(C)c(=O)[nH]c1=O	14.4% (inactive)
CC1C=CC(OC(=O)C(C)(O)CCC(O)(C(=O)OC2CC(O)C(C(C)C)CC2(C)O)C(C)C)(C(C)C)CC1 (centres undefined)	-70.5% [4.63 µM] (active)
COc1cc(OC)c(C(=O)C(CN(C)C)CN(C)C)cc1OC	96.5% (inactive)
OCCNCCNC(Cc1ccc(Cl)cc1)c1ccccc1 (centres undefined)	96.2% (inactive)

Value of growth reported for the compound CCOc1c(OC)cc2c(c1O)C(=O)N[C@@H]1[C@@H](O)[C@@H](O)[C@H](O)C[C@@H]21 is 107% (inactive)

Reported growth of COC(=O)c1ccc(NC(=O)Nc2ccc(C(=O)OC)cc2)cc1 : 113% (inactive)

Note to self: growth recorded for Cc1ccnc(Nc2ccc([N+](=O)[O-])c(NCCN3CCOCC3)n2)c1 was 42% (inactive)

Per the records, this compound ( Cc1nn(-c2cc(NC3CCC(O)CC3)c3c(=O)[nH]c(CCC(F)(F)F)cc3c2)c2c1C(=O)CC(C)(C)C2 (centres undefined) ) has growth equal to 20.3% (inactive)

So for O=C(CC(=O)Nc1cccc(C(=O)O)c1)Nc1cccc(C(=O)O)c1 , the logged growth turned out to be 107% (inactive)

* * *

Test system: IGROV1 ovarian
Assay: NCI-60 one-dose screen, 48 h (100 = growth as untreated, 0 = no growth, -100 = all killed)
Conditions: 10 µM unless noted
This is part of a sample that, as a whole, favours compounds with a hit. Of some 83,000 tested, about 20% had one in any assay.
Entry flag: YES if growth reaches 60%; NO if it does not.

Example cases with answers are listed next.
CC1(C)CC[C@]2(CO)CC[C@]3(C)[C@H](CC[C@@H]4[C@@]5(C)CCCNC(C)(C)[C@@H]5CC[C@]43C)[C@H]2[C@H]1O	YES
Cc1cc(Nc2ccc(C(=O)N3CCCC3)cc2)nc(NCCCNc2ccnc3cc(Cl)ccc23)n1	YES
COc1ccc(C(=O)N2c3ccccc3Sc3ccccc32)c(C(F)(F)F)c1	NO

Decide: is the reported value of growth for CCCCCCCCCCCCCCCCCC1=NC(C)(C)CN1CC(C)O (stereo not drawn) equal to or greater than 60%? YES

Determine whether measured growth meets or exceeds 60% for COc1ccc(/C=C/C(c2cc(OC)c(OC)c(OC)c2)n2ccnc2)cc1O (stereo not drawn) NO

Please tell me: is the compound COc1ccc(C(=O)/C=C/c2ccc(N3CCCCC3)cc2)cc1OC at or over 60% in terms of growth? YES

I'd appreciate it if you could say whether Cc1ccc2c(-n3nc(C#N)c(C#N)c3N)cc(=O)[nH]c2c1 has growth at least equal to 60%. YES

Hi team, for CCN(CC)Cc1cc(Nc2ccnc3cc(Cl)ccc23)ccc1O , is the recorded growth at or above 60%? YES

* * *

Test system: NCI-H23 lung
Experiment: NCI-60 one-dose screen, 48 h (100 = growth as untreated, 0 = no growth, -100 = all killed)
Details: 10 µM unless noted
The panel holds about 83,000 compounds, 20% with a hit somewhere; the sample as a whole holds those more often.
Threshold check on growth: strictly below 70% is y; on or above 70% is n.

Cc1cn(-c2cc(NC(=O)c3cncc(C#Cc4c(N)ncc5ccc(F)cc45)c3)cc(C(F)(F)F)c2)cn1	y

For CN1CCN(CCOc2ccc(-c3cnc4c(-c5cccc(F)c5F)cnn4c3)cc2)CC1 , is the recorded growth below the cut-off of 70%? y

hey, is growth for O=C1C(Nc2ccccn2)=C(I)C(=O)c2ncccc21 lower than 70% or not? y

Problem: For the compound Cc1ccc(N2C(=O)CCC2=O)cc1 , is growth under 70%? n

growth under 70%? Item: Fc1ccc(Cn2cc(CSc3nc4ccccc4o3)nn2)cc1 n

Say whether its growth is strictly beneath 70%. Entry: Cn1ccc(=O)nc1 n

Does CO[C@H]1CC(=O)n2c3ccccc3c3c4c(c5c6ccccc6n1c5c32)C(=O)NC4=O have growth strictly under 70%? y

* * *

Tested on: M14 melanoma
Test: NCI-60 one-dose screen, 48 h
Settings: 10 µM unless noted
Experimental: Growth inhibition of the M14 human tumor cell line is measured as a screen for anti-cancer activity. Cells are grown in 96 well plates and exposed to the test compound for 48 hours. Compounds are tested at a single concentration, which is 10^-5 M for most compounds. The reported endpoint is percent growth (GI% or GIPRCNT), where numbers from 0 - 100% represent growth inhibition, and numbers from -100% - 0 represent cell death. For example, a value of 40 represents 60% growth inhibition. […]
This is part of a sample that, as a whole, favours compounds with a hit. Of some 83,000 tested, about 20% had one in any assay. Active and inactive are the calls of the source. The calls were made as follows: active = growth percent below 10; inactive = the rest.
Form entry, call: pick from Yes for active, No for inactive

CC1=CC(c2ccco2)=C2C(N)=NNC2N1 (configuration not stated)	No
C#CCO[C@H]1CC(CC#C)(CC#C)C(=O)[C@@H]2[C@H]1[C@H]1C[C@@H]3[C@@]4(C)CCC[C@@](C)(C(=O)OC)[C@@H]4CC[C@@]23C=C1C(C)C	No
CN(C)c1ccc(-c2ccc3c(c2)c(-c2ccccc2)nc(=O)n3C)cn1	No
COc1ccccc1C(=O)Nc1cccc(NC(=O)c2ccoc2C)c1	No
COc1cc2nc3sc(C(=O)Nc4ccc(C(=O)OC(C)C)cc4)c(C(=O)Nc4ccc(Cl)cc4C)n3c(=O)c2cc1OC	No
COc1ccc(/C=C/C(=O)c2ccc(NC(=O)CSc3nc4c([nH]3)c(=O)n(C)c(=O)n4C)cc2)cc1OC	No

Okay, next one:
Please let me know the test result on file for N#CSc1c[nH]c2cccc(/C=C/C(=O)/C=C(O)/C=C/c3cccc4[nH]cc(SC#N)c34)c12 . Yes
